Assay: Pharmacokinetics of CR8 in mouse plasma after oral and i.v. administration (HPLC-UV)
Assay type: in vivo, mice
Details: female, BALB/c, mouse, plasma, iv, 50 mg/kg, plasma, 50 mg/kg intravenously; read-out: AUC
QUANTITY_MEASURED: AUC

- CC[C@H](CO)Nc1nc(NCc2ccc(-c3ccccn3)cc2)c2ncn(C(C)C)c2n1: ~45000 ng·h/mL

###

Assay: Pharmacokinetics of CR8 in mouse plasma after oral and i.v. administration (HPLC-UV)
Assay type: in vivo, mice
Conditions: female, BALB/c, mouse, plasma, iv; i.v. bolus 50 mg/kg; read-out: Vss (distribution volume at steady state)
QUANTITY_MEASURED: Vd (L)

- CC[C@H](CO)Nc1nc(NCc2ccc(-c3ccccn3)cc2)c2ncn(C(C)C)c2n1: 0.044

###

Assay: Biodistribution of CR8 to mouse organs after oral administration
Type: in vivo, mice
Settings: female, BALB/c, mouse, brain, po, 100 mg/kg, brain, oral 100 mg/kg; read-out: Tissue/plasma exposure ratio (% AUC organ vs. AUC plasma; concentration in brain vs plasma)
Method: CR8 was dissolved in DMSO: 50 mM HCl (10:90 v/v). The first group of mice received i.v. doses of CR8 (50 mg/kg body weight), the second received oral doses of CR8 (100 mg/kg body weight) and three control mice received vehicle alone. […] Bone marrow was flushed from both femurs and mononuclear cells were counted and frozen. […] Nucleated cells were counted using Türk solution and bone marrow was stored at −20°C until assay. […]
QUANTITY_MEASURED: Kp

* CC[C@H](CO)Nc1nc(NCc2ccc(-c3ccccn3)cc2)c2ncn(C(C)C)c2n1 | 0.15

###

Assay: Pharmacokinetics of CR8 in mouse plasma after oral and i.v. administration (HPLC-UV)
Type: in vivo, mice
Settings: female, BALB/c, mouse, plasma, oral, 100 mg/kg, oral 100 mg/kg vs i.v. 50 mg/kg, F=AUCpo*doseIV/AUCIV*dosepo
QUANTITY_MEASURED: bioavailability

- CC[C@H](CO)Nc1nc(NCc2ccc(-c3ccccn3)cc2)c2ncn(C(C)C)c2n1: ~100%

###

Assay: Pharmacokinetics of CR8 in mouse plasma after oral and i.v. administration (HPLC-UV)
Format: in vivo, mice
Conditions: female, BALB/c, mouse, plasma, female BALB/c mice; read-out: Half-life (converted)
QUANTITY_MEASURED: half-life

- CC[C@H](CO)Nc1nc(NCc2ccc(-c3ccccn3)cc2)c2ncn(C(C)C)c2n1: ~3 h

###

Assay: Pharmacokinetics of CR8 in mouse plasma after oral and i.v. administration (HPLC-UV)
Type: in vivo, mice
Conditions: female, BALB/c, mouse, plasma, po, 100 mg/kg, plasma, 100 mg/kg orally; read-out: AUC
QUANTITY_MEASURED: AUC

* CC[C@H](CO)Nc1nc(NCc2ccc(-c3ccccn3)cc2)c2ncn(C(C)C)c2n1 | ~100000 ng·h/mL

###

Assay: Pharmacokinetics of CR8 in mouse plasma after oral and i.v. administration (HPLC-UV)
Format: in vivo, mice
Settings: female, BALB/c, mouse, plasma, po, 100 mg/kg, Plasma, single oral 100 mg/kg; read-out: Cmax
QUANTITY_MEASURED: Cmax (ng/mL)

* CC[C@H](CO)Nc1nc(NCc2ccc(-c3ccccn3)cc2)c2ncn(C(C)C)c2n1 [CR8] | 34300

###

Experiment: Biodistribution of CR8 to mouse organs after oral administration
Format: in vivo, mice
Settings: female, BALB/c, mouse, lung, po, 100 mg/kg, lung, oral 100 mg/kg; read-out: Tissue/plasma exposure ratio
Procedure: CR8 was dissolved in DMSO: 50 mM HCl (10:90 v/v). The first group of mice received i.v. doses of CR8 (50 mg/kg body weight), the second received oral doses of CR8 (100 mg/kg body weight) and three control mice received vehicle alone. […] Bone marrow was flushed from both femurs and mononuclear cells were counted and frozen. […] Nucleated cells were counted using Türk solution and bone marrow was stored at −20°C until assay. […]
QUANTITY_MEASURED: Kp

• CC[C@H](CO)Nc1nc(NCc2ccc(-c3ccccn3)cc2)c2ncn(C(C)C)c2n1 [CR8] = 0.8

###

Assay: Biodistribution of CR8 to mouse organs after oral administration
Assay type: in vivo, mice
Details: female, BALB/c, mouse, spleen, po, 100 mg/kg, spleen, oral 100 mg/kg; read-out: Tissue/plasma exposure ratio
QUANTITY_MEASURED: Kp

* CC[C@H](CO)Nc1nc(NCc2ccc(-c3ccccn3)cc2)c2ncn(C(C)C)c2n1 | 0.5

###

Test: Biodistribution of CR8 to mouse organs after oral administration
Type: in vivo, mice
Conditions: female, BALB/c, mouse; Kidney, single oral 100 mg/kg
QUANTITY_MEASURED: Cmax (ng/g)

• CC[C@H](CO)Nc1nc(NCc2ccc(-c3ccccn3)cc2)c2ncn(C(C)C)c2n1 = 36000

###

Experiment: Biodistribution of CR8 to mouse organs after oral administration
Format: in vivo, mice
Conditions: female, BALB/c, mouse; Bone marrow, single oral 100 mg/kg
QUANTITY_MEASURED: Cmax (ng/g)

- CC[C@H](CO)Nc1nc(NCc2ccc(-c3ccccn3)cc2)c2ncn(C(C)C)c2n1 [CR8]: 10600

###

Assay: Pharmacokinetics of CR8 in mouse plasma after oral and i.v. administration (HPLC-UV)
Format: in vivo, mice
Conditions: female, BALB/c, mouse, plasma, oral, 100 mg/kg; mice; read-out: Time of maximum concentrations (converted)
QUANTITY_MEASURED: Tmax (min)

- CC[C@H](CO)Nc1nc(NCc2ccc(-c3ccccn3)cc2)c2ncn(C(C)C)c2n1: 30

###

Experiment: Biodistribution of CR8 to mouse organs after oral administration
Type: in vivo, mice
Settings: female, BALB/c, mouse; Lung, single oral 100 mg/kg
QUANTITY_MEASURED: Cmax (ng/g)

- CC[C@H](CO)Nc1nc(NCc2ccc(-c3ccccn3)cc2)c2ncn(C(C)C)c2n1: 19300

###

Assay: Pharmacokinetics of CR8 in mouse plasma after oral and i.v. administration (HPLC-UV)
Format: in vivo, mice
Details: female, BALB/c, mouse, plasma, po, 100 mg/kg, plasma, single oral 100 mg/kg; read-out: Cmax (maximum reached concentration)
Description: 70 μl plasma was added to 140 μl methanol and vortexed for 15 sec. Samples were centrifuged at 10000 g for 10 minutes, and 50 μl from the supernatant were injected into the HPLC system. […] CR8 was dissolved in DMSO: 50 mM HCl (10:90 v/v). […] Bone marrow was flushed from both femurs and mononuclear cells were counted and frozen. […] Oral bioavailability (F) defined as the fraction of the oral administered dose of CR8 that reaches the systemic circulation was calculated according to the following formula: […]
QUANTITY_MEASURED: Cmax

- CC[C@H](CO)Nc1nc(NCc2ccc(-c3ccccn3)cc2)c2ncn(C(C)C)c2n1: 34300 ng/mL

###

Experiment: Pharmacokinetics of CR8 in mouse plasma after oral and i.v. administration (HPLC-UV)
Format: in vivo, mice
Conditions: female, BALB/c, mouse, plasma, po, 100 mg/kg, plasma, single oral 100 mg/kg; read-out: Tα (first elimination half-life) (converted)
QUANTITY_MEASURED: half-life (h)

- CC[C@H](CO)Nc1nc(NCc2ccc(-c3ccccn3)cc2)c2ncn(C(C)C)c2n1: 1.3

###

Experiment: Pharmacokinetics of CR8 in mouse plasma after oral and i.v. administration (HPLC-UV)
Type: in vivo, mice
Settings: female, BALB/c, mouse, plasma, po, 100 mg/kg, plasma, single oral 100 mg/kg, mice; read-out: AUC (area under time plasma concentration curve)
QUANTITY_MEASURED: AUC (ng·h/mL)

- CC[C@H](CO)Nc1nc(NCc2ccc(-c3ccccn3)cc2)c2ncn(C(C)C)c2n1 [CR8]: 96300

###

Test: Pharmacokinetics of CR8 in mouse plasma after oral and i.v. administration (HPLC-UV)
Format: in vivo, mice
Details: female, BALB/c, mouse, plasma, po, 100 mg/kg, plasma, single oral 100 mg/kg; read-out: Tβ (terminal elimination half-life) (converted)
QUANTITY_MEASURED: half-life (h)

• CC[C@H](CO)Nc1nc(NCc2ccc(-c3ccccn3)cc2)c2ncn(C(C)C)c2n1 = 3.1

###

Test: Biodistribution of CR8 to mouse organs after oral administration
Type: in vivo, mice
Conditions: female, BALB/c, mouse, liver, po, 100 mg/kg, liver, oral 100 mg/kg; read-out: Tissue/plasma exposure ratio (% AUC organ vs. AUC plasma)
QUANTITY_MEASURED: Kp

- CC[C@H](CO)Nc1nc(NCc2ccc(-c3ccccn3)cc2)c2ncn(C(C)C)c2n1: 2.05

###

Test: Pharmacokinetics of CR8 in mouse plasma after oral and i.v. administration (HPLC-UV)
Type: in vivo, mice
Settings: female, BALB/c, mouse, plasma, iv, 50 mg/kg, plasma, i.v. bolus 50 mg/kg; read-out: Tα (first elimination half-life) (converted)
QUANTITY_MEASURED: half-life

* CC[C@H](CO)Nc1nc(NCc2ccc(-c3ccccn3)cc2)c2ncn(C(C)C)c2n1 | 6.6 min

Values were extracted from paper PMC3849647.
